Measured inhibition, listed per entry for reference.
tested on: Tyrosine-protein kinase ABL1 (Homo sapiens), P00519 [Y253F]; settings: at 0.1 µM
attribute measured: inhibition (%)

* C[C@@H](Oc1cc(-n2cnc3ccc(OC[C@@H](O)CO)cc32)sc1C(N)=O)c1ccccc1Cl | -0.46
* COc1cccc(-n2nc(C)c3c(N/N=C(\C)c4ccncc4)ncnc32)c1 | 1.07
* N#Cc1c(NC(=O)c2ccccc2F)sc2c1CCCC2 | -0.24
* COc1cc2ncn(-c3cc(OCc4ccccc4S(C)(=O)=O)c(C#N)s3)c2cc1OC | 13.8
* CC(C)c1ccc(Nc2nccc(-c3cnn4ncccc34)n2)cc1 | 4.68
* Cc1ccc2c(-c3ccnc(Nc4cccc(C(F)(F)F)c4)n3)c(-c3ccccc3)nn2n1 | 12.2
* NS(=O)(=O)c1ccc(Nc2cc(-c3cccc(O)c3)n[nH]2)cc1 | 6.94
* CN(C)C(=O)O[C@@H]1CN[C@@H](C#Cc2cc3ncnc(Nc4ccc(OCc5cccc(F)c5)c(Cl)c4)c3s2)C1 | 1.53
* OCc1ccc(-c2nc(-c3ccccn3)c(-c3ccc4c(c3)OCO4)[nH]2)cc1 | 4.74
* Nc1nccc(-c2c(-c3ccc(F)cc3)ncn2CCCN2CCOCC2)n1 | 3.98
